Every entry's value here was drawn from ChEMBL document CHEMBL3433997.

Target: Glucose transporter (Leishmania mexicana) (UniProt O61059)
Experiment: ST_JUDE_LEISH: Cytotoxicity at 2uM final concentration against transgenic Leishmania Mexicana promastigotes LmGT2 that are glucose transport deficient and complemented with the L. Mexicana glucose transporter 2. Activity is measured by DNA content using SYBR green in vitro
Format: functional
recorded_endpoint: inhibition (%)
Numeric answer only, unit % assumed.

Here is how some compounds turned out for inhibition.
compound | unit_symbol | value_observed
Cc1cccc(C)c1C1CCN(C2CCC(NC(=O)/C=C/c3ccccc3)CC2)CC1 (stereo not drawn) | % | 5.46
Cc1cc(=O)c(-c2ccc(Oc3ccc(Cl)cc3Cl)cc2)c(C)[nH]1 | % | 1.9
Cc1cc(Nc2ccncc2)n2nc(C)c(-c3ccc(Cl)cc3)c2n1 | % | 8.71
CC(C)C[C@H](NC(=O)c1cccc(F)c1)C(=O)N[C@H](/C=N/NC(=O)c1ccccc1)CCc1ccccc1 | % | 0.18
COc1cc2[nH]c(-c3ccc(O)cc3)c(C)c(=O)c2c(OC)c1OC | % | -2.9

Tell me reported inhibition for Cc1cc(N[C@@H](Cc2ccccc2)C(=O)NC2CCCC2)nc(NCCOc2ccccc2)n1 , tested with Glucose transporter (Leishmania mexicana) (UniProt O61059).
2.19

Recall the recorded inhibition for COc1ccc(-c2ccc(NC(=O)c3ccc(Cl)cc3)cc2)cc1CN1CCCN(C)CC1 with Glucose transporter (Leishmania mexicana) (UniProt O61059) and state it.
5.6

Checklist item: inhibition tested on Glucose transporter (Leishmania mexicana) (UniProt O61059), entry CCCO[C@H](C(=O)OC)[C@@H](CC1Cc2ccccc2C1)C(=O)NCCC1=CCCCC1 , value?
2.2

Identify the measured inhibition of O=S(=O)(c1cccc(Cl)c1F)N(CCC(O)(C(F)(F)F)C(F)(F)F)Cc1cccc(O)c1 for Glucose transporter (Leishmania mexicana) (UniProt O61059).
-0.05

What value of inhibition on Glucose transporter (Leishmania mexicana) (UniProt O61059) does Cn1nc(-c2cccc(CNC3CCc4ccccc43)c2)c2cnc(NC3CCCC3)nc21 (stereo not drawn) have?
3.3

Hi! What's the reported inhibition for Cc1cccc2nc(-c3ccc(-c4cccc(C(=O)NCCN5CCCC5)c4)s3)[nH]c12 on Glucose transporter (Leishmania mexicana) (UniProt O61059)?
9.13

====

Biological target: Glucose transporter (Leishmania mexicana)
Assay: ST_JUDE_LEISH: Cytotoxicity at 2uM final concentration against transgenic Leishmania Mexicana promastigotes LmGT2 that are glucose transport deficient and complemented with the L. Mexicana glucose transporter 2. Activity is measured by DNA content using SYBR green in vitro
Assay type: functional
recorded_endpoint: inhibition (%)
Give the value, in units of %, as a plain number.

# example entries with known answers
molecule | inhibition / %
Cc1[nH]cnc1CSCCN/C(=N\C#N)NCCCCCCCCN/C(=N/C#N)NCCSCc1nc[nH]c1C | 2.98
COc1ccc2nc3cc(Cl)ccc3c(NCCCN3CCNCC3)c2c1 | 2.39

Entry Cc1nc(C)c(-c2ccc(Oc3ccc(Cl)c(Cl)c3)cc2)c(O)c1Br : reported inhibition = ?
0.06

====

Target: Glucose transporter (Leishmania mexicana)
Assay: ST_JUDE_LEISH: Cytotoxicity at 2uM final concentration against transgenic Leishmania Mexicana promastigotes LmGT2 that are glucose transport deficient and complemented with the L. Mexicana glucose transporter 2. Activity is measured by DNA content using SYBR green in vitro
Assay type: functional
recorded_endpoint: inhibition

Solved cases (2 shown):
compound | value_observed
CCC(C)NC(=O)Nc1cccc(-c2cccc(-c3nc4cccc(C)c4[nH]3)c2)c1 (stereo not given) | 11.5%
CCOc1ccc(C(Cc2ccccc2)NC(=O)c2cccnc2)cc1OCC (stereo not given) | -0.89%

Find inhibition (Glucose transporter (Leishmania mexicana)) for the entry COc1ccc(-c2cccc(NC(=O)c3ccc(Cl)cc3)c2)cc1CN1CCNCC1
-0.7%

# returns recorded inhibition (system: Glucose transporter (Leishmania mexicana)) for Cc1cnc(C(=O)Nc2cccc(-c3ccc(-c4nc5cc(C(F)(F)F)ccc5[nH]4)s3)c2)cn1
6.71%

Lab request: please report inhibition under test system Glucose transporter (Leishmania mexicana) for CCn1c(-c2nonc2N)nc2c(Cl)ncc(O[C@H](CCN)c3ccccc3F)c21
20.2%

Query inhibition on Glucose transporter (Leishmania mexicana) for CCN1CCN(CCCCNc2c3ccccc3nc3ccccc23)CC1
10.7%

Checklist item: inhibition tested on Glucose transporter (Leishmania mexicana), entry CCCn1cnc2cc(C(=O)Nc3ccc(-c4cccc(CN(C)C)c4)cc3)ccc2c1=O , value?
5.21%

Quick check: inhibition on Glucose transporter (Leishmania mexicana), item COc1cccc(-c2cc(C(=O)Nc3cc(Oc4ccc(O)cc4)cc([N+](=O)[O-])c3)on2)c1 ?
3.98%

Look up inhibition with Glucose transporter (Leishmania mexicana) for this compound: Cc1cc(O)c(-c2cc(C(=O)Nc3cccnc3)[nH]n2)cc1C
4.37%

====

Listing: inhibition of selected compounds
Biological target: Hexose transporter 1 (Plasmodium falciparum)
Test: ST_JUDE_LEISH: Cytotoxicity at 2uM final concentration against transgenic Leishmania Mexicana promastigotes LmPfHT that are glucose transport deficient and complemented with the Plasmodium falciparum hexose transporter. Activity is measured by DNA content using SYBR green in vitro
Type: functional
Supply the numeric figure in %, leaving out any unit text.

Solved entries (count: 3):
compound | inhibition [%]
COc1ccccc1N1CCN(CCCCNC(=O)c2ccc(NC(=O)c3cc(Cl)cc(Cl)c3)cc2)CC1 | 3.24
CC(CN(C)C)C(=O)Nc1ccc(-c2cccc(-c3nc4cc(C(F)(F)F)ccc4[nH]3)c2)cc1 (stereo unspecified) | 1.89
N#CC1(CCCNCCc2ccc(O)cc2)CCCc2c(O)cccc21 (stereo unspecified) | 12

Please give the measured inhibition for this compound: N=C(N)c1ccc(NCc2cccc(C(=O)O)c2)cc1
1.06

Using the record for C[C@@H](N)C#Cc1cc2c(Nc3ccc(OCc4cccc(F)c4)c(Cl)c3)ncnc2s1 , report its inhibition.
4.76

Quick check: inhibition of Cn1cnc(CCNC(=O)c2ccc(-c3ccc(-c4nc5cc(F)ccc5[nH]4)cc3)cc2)c1 ?
5.92

Suppose we examine the compound CC(C)Oc1ccc(C=CC(=O)Nc2noc3ccccc23)cc1 ; what inhibition value has been reported?
3.16

====

# maps each entry to its inhibition
Target: Hexose transporter 1 (Plasmodium falciparum) (UniProt O97467)
Experiment: ST_JUDE_LEISH: Cytotoxicity at 2uM final concentration against transgenic Leishmania Mexicana promastigotes LmPfHT that are glucose transport deficient and complemented with the Plasmodium falciparum hexose transporter. Activity is measured by DNA content using SYBR green in vitro
Format: functional
Give just the numeric value; % need not be written.

Worked examples follow.
compound | unit_symbol | inhibition
Cc1cccc2c3c([nH]c12)C1(CCN(Cc2ccccc2)CC1)NC(C(=O)NCc1ccccc1)C3 (centres undefined) | % | -0.76
O=C(NC1CC1)c1cnc(N2CCN(Cc3c(F)cccc3Cl)CC2)c(Cl)c1 | % | 1.02
O=C(Nc1cccc(-c2ccc(-c3nc4cc(C(F)(F)F)ccc4[nH]3)cc2)c1)c1ccncc1 | % | 0.73
COc1ccc(CN2CCCC(C(=O)c3ccc(C(F)(F)F)cc3)C2)c(O)c1 (centres undefined) | % | 4.48
O=C(Nc1ccc(OC2CCN(Cc3ccsc3)C2)c(Cl)c1)c1cccs1 (centres undefined) | % | 3.61

Lookup: inhibition / Hexose transporter 1 (Plasmodium falciparum) (UniProt O97467) / Cn1nc(-c2ccc(CN[C@@H]3CCc4ccc(O)cc43)cc2)c2cnc(NC3CCCC3)nc21
-1.03

What is its inhibition for Hexose transporter 1 (Plasmodium falciparum) (UniProt O97467)? Entry: COc1cc2nc(NCCn3ccnc3C)nc(NCCc3ccccc3)c2cc1OC
1.02

Find inhibition (Hexose transporter 1 (Plasmodium falciparum) (UniProt O97467)) for the entry COc1ccc(-c2cccc(NC(=O)c3ccc(C#N)cc3)c2)cc1CNC(C)C
6.99

Item O=C(NCCc1ccccc1)N(Cc1ccc(-c2cccc(CN3CCNCC3)c2)cc1)C1CCN(Cc2ccccc2)CC1 with Hexose transporter 1 (Plasmodium falciparum) (UniProt O97467) - inhibition?
1.61

====

Biological target: Glucose transporter (Leishmania mexicana)
Assay: ST_JUDE_LEISH: Cytotoxicity at 2uM final concentration against transgenic Leishmania Mexicana promastigotes LmGT2 that are glucose transport deficient and complemented with the L. Mexicana glucose transporter 2. Activity is measured by DNA content using SYBR green in vitro
Format: functional
recorded_endpoint: inhibition (%)
Expressed in %, but write only the number.

Below, each entry is followed by its recorded inhibition result.
molecule | unit_symbol | value_observed
CN1CCCN(Cc2ccc(-c3cccc(NC(=O)c4cccc(Cl)c4)c3)cc2)CC1 | % | 9.24
Cc1c(CNCCCNc2cc(=O)c3ccccc3[nH]2)sc(/C=N/O)c1Br | % | 5.31
NCCNS(=O)(=O)c1ccc(-c2ccnc3[nH]c(-c4ccncc4)cc23)cc1 | % | 0.62
CC1(C)N=C(NC(=O)c2ccc([N+](=O)[O-])cc2)N=C(N)N1OCc1ccc2ccccc2c1 | % | -0.07
O=C(c1cc(-c2ccco2)n[nH]1)N1CCN(S(=O)(=O)c2ccc(Cl)cc2)CC1 | % | -1.09

# lookup: inhibition of CC(C)OC(=O)c1cccnc1SCC(=O)Nc1ccc(C(F)(F)F)cc1Cl
3.79

Item COc1ccc2c(c1)CC(C)(C)NC2CCCCCCCCC1NC(C)(C)Cc2cc(OC)ccc21 (stereo not given) has what recorded inhibition?
0.77

What value of measured inhibition is listed for Nc1ccnc2ccc(NC(=O)CCCCCc3ccccc3)cc12 ?
1.99

Find the recorded inhibition belonging to CCCCC(NCC)c1ccc(OCCOc2ccc(C(CCCC)NCC)cc2)cc1 (stereo not given) and report it.
106

Param item = CCNc1cc(C(=O)N[C@@H](Cc2ccccc2)[C@H](O)CNCCc2ccccc2)cc(N2CCCCS2(=O)=O)c1 ; retrieve measured inhibition.
-3.28

I am curious: what inhibition value has been reported for CC(ON1C(N)=NC(N)=NC1(C)C)c1ccccc1 (stereo not given) ?
6.95

Given the molecule CN(c1ccccc1)c1ccnc(NC(=N)Nc2ccc(Cl)cc2)n1 , what is its reported inhibition?
5.1
